The reported numbers originate from the supplement of paper PMC10567573.

B1: GNB5 (parent)
chain: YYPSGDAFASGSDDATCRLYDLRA

variants of: B1; assay: protein stability index of a GFP-peptide fusion (GPS, HEK-293T) (PSI 1-6); higher = more stable; details: c terminus: a fixed tail appended;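 also: lentivirally expressed fusions sorted by FACS into six bins by GFP to DsRed ratio, PSI derived from sequencing read proportions per bin multiplied by bin number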
This section presents variants with their documented protein stability index values.
property label: protein stability index

[[record]]
seq = "YYPSGDAFASGSDDVTCRLYDLRA [A15V]"
value_observed = 2.72

[[record]]
seq = "YYPSGDAFASWSDDATCRLYDLRA [G11W]"
value_observed = 2.11

[[record]]
seq = "YYPSGDAIASGSDDATCRLYDLRA [F8I]"
value_observed = 3.42

[[record]]
seq = "YYPSGDAFASGSDDATCRIYDLRA [L19I]"
value_observed = 2.3

[[record]]
seq = "YYPSGTAFASGSDDATCRLYDLRA [D6T]"
value_observed = 2.13

[[record]]
seq = "YNPSGDAFASGSDDATCRLYDLRA [Y2N]"
value_observed = 3.55

